Target: Xanthine oxidase (from bovine milk) (Bos taurus, UniProt P80457)
Sequence (P80457 whole entry): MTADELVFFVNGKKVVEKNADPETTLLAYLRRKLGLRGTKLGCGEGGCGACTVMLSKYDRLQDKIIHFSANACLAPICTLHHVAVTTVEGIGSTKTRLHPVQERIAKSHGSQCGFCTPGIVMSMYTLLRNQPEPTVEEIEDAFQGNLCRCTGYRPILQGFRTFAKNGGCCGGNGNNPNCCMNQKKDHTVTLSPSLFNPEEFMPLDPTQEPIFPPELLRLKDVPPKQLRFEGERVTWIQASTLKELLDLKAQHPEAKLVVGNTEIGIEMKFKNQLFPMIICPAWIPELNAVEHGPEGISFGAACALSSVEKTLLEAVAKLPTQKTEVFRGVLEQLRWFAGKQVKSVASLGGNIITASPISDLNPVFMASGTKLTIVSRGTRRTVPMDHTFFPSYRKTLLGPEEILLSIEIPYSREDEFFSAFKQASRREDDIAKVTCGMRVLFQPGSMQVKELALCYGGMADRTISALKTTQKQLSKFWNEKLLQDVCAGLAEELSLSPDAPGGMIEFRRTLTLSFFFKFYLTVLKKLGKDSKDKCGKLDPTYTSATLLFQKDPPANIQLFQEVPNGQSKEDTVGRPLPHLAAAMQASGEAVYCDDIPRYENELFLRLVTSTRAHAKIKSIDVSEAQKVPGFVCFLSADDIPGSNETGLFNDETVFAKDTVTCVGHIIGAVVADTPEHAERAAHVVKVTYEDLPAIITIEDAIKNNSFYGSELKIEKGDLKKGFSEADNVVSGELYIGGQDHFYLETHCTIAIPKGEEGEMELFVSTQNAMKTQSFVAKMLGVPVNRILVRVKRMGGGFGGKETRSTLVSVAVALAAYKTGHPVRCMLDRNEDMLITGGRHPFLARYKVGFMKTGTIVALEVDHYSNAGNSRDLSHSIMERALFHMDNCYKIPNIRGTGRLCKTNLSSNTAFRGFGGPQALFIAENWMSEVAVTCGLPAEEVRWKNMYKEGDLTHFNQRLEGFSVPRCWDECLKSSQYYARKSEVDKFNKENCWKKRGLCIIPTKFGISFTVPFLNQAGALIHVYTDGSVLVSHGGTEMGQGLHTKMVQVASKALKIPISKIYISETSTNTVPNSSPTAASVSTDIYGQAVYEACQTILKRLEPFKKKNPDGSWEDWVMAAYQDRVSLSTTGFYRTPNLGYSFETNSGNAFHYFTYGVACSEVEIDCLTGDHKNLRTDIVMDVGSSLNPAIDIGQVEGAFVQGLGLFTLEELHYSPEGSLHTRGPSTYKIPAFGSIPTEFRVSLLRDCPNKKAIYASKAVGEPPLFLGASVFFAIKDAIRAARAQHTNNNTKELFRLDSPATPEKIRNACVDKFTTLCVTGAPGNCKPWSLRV
measured-attribute: IC50 (nM)

compound	measurement-unit	IC50
N#Cc1cc(-c2ccc(C(=O)O)c(O)c2)n2ncccc12 [Example 12]	nM	4
N#Cc1cc(-c2ccc(C(=O)O)c(O)c2)c2cccnn12 [Example 2]	nM	5

(I) N#Cc1cn(-c2ccc(C(=O)O)c(O)c2)c2cccnc12 [Example 15]
(II) N#Cc1cc(-c2ccc(C(=O)O)cc2)c2cccnn12 [Example 1]
(III) N#Cc1cc(-c2ccc(C(=O)O)c(O)c2)c2ccc(F)cn12 [Example 9]
Ask: Let's sort these by IC50, smallest first. Go ahead? Please respond with the labels ordered as the question requires.
Result: III, II, I
(III: 4 nM, II: 7 nM, I: 10 nM)
